Target: UniProtKB Q96GD4
Sequence (Q96GD4 whole entry): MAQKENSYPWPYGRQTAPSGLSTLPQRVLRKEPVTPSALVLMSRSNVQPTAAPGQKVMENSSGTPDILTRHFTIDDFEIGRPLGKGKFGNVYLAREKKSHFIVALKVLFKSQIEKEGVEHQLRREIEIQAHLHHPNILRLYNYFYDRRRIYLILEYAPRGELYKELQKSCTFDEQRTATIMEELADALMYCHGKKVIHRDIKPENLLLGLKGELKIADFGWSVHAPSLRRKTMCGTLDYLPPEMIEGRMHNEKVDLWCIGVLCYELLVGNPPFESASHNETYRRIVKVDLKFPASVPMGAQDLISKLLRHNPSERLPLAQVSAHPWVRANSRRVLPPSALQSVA
# label = YES if IC50 < 700 nM else NO

INSERT INTO assay_data (compound, qualitative_label) VALUES
  ('CCOC(=O)CCc1c(/C=C2\C(=O)Nc3ccccc32)[nH]c2c1C(=O)CCC2 [DCB-70049]', 'NO'),
  ('O=C(O)CCc1c(/C=C2\C(=O)Nc3cc(-c4ccc(O)c(O)c4)ccc32)[nH]c2c1C(=O)CCC2 [DCB-70078]', 'YES'),
  ('O=C(O)CCc1c(/C=C2\C(=O)Nc3ccc(S(=O)(=O)N4CCCC4)cc32)[nH]c2c1C(=O)CCC2 [DCB-70087]', 'YES'),
  ('CN(C)S(=O)(=O)c1ccc2c(c1)/C(=C/c1[nH]c3c(c1CCC(=O)O)C(=O)CCC3)C(=O)N2 [DCB-70121]', 'NO'),
  ('O=C(O)CCc1c(/C=C2\C(=O)Nc3ccc(NS(=O)(=O)c4ccc(F)cc4)cc32)[nH]c2c1C(=O)CCC2 [DCB-70145]', 'YES'),
  ('CC(=O)c1c(C)[nH]c(/C=C2\C(=O)Nc3ccc(NS(=O)(=O)c4ccccc4)cc32)c1CCC(=O)O [DCB-70200]', 'NO'),
  ('COc1cccc(S(=O)(=O)Nc2ccc3c(c2)/C(=C/c2[nH]c4c(c2CCC(=O)O)C(=O)CCC4)C(=O)N3)c1 [DCB-70196]', 'YES'),
  ('O=C(O)CCc1c(/C=C2\C(=O)Nc3ccc(NS(=O)(=O)Cc4ccccc4)cc32)[nH]c2c1C(=O)CCC2 [DCB-70198]', 'YES'),
  ('CCOC(=O)CCc1c(/C=C2\C(=O)Nc3ccc(NS(=O)(=O)c4ccc(F)cc4)cc32)[nH]c2c1C(=O)CCC2 [DCB-70144]', 'YES'),
  ('O=C(O)CCc1c(/C=C2\C(=O)Nc3ccc(NS(=O)(=O)c4ccccc4)cc32)[nH]c2c1C(=O)CCC2 [DCB-70103]', 'YES');
